assay: Terminal elimination half life in Wistar-Han rat at 1.48 mg/kg, iv; assay type: ADME, organism-based; set-up: dose 1.48 mg/kg, route intravenous; settings: in vivo, read-out: beta t1/2 (converted)
Where a SMILES comes first, the peptide text is derived from it. [ ]: non-standard residue; d: D form. NMeY = CN[C@@H](Cc1ccc(O)cc1)C(=O)O; NMeD = CN[C@@H](CC(=O)O)C(=O)O; dNMeL = CN[C@H](CC(C)C)C(=O)O
QUANTITY_MEASURED: half-life (min)

molecule="CC(C)C[C@@H]1NC(=O)[C@H](Cc2ccc(O)cc2)N(C)C(=O)[C@H]2CCCN2C(=O)[C@H](CC(C)C)NC(=O)[C@H](CC(=O)O)N(C)C(=O)[C@@H](CC(C)C)N(C)C1=O (cyclo(L[dNMeL][NMeD]L[dP][NMeY]))" quantity_measured=half-life assay_result=21.5

====

test: Oral bioavailability in male Wistar-Han rat assessed as dose escapes hepatic metabolism; assay type: ADME, organism-based; settings: in vivo
Where a SMILES comes first, the peptide text is derived from it. [ ]: non-standard residue; d: D form. NMeY = CN[C@@H](Cc1ccc(O)cc1)C(=O)O; dNMeL = CN[C@H](CC(C)C)C(=O)O; NMeS = CN[C@@H](CO)C(=O)O
QUANTITY_MEASURED: Fh (%)

molecule="CC(C)C[C@@H]1NC(=O)[C@H](Cc2ccc(O)cc2)N(C)C(=O)[C@H]2CCCN2C(=O)[C@H](CC(C)C)NC(=O)[C@H](CO)N(C)C(=O)[C@@H](CC(C)C)N(C)C1=O (cyclo(L[dNMeL][NMeS]L[dP][NMeY]))" assay_result=14

====

assay: Cmax in male Wistar-Han rat at 5 mg/kg, po; type: ADME, organism-based; parameters: dose 5 mg/kg, route oral; details: in vivo
Where a SMILES comes first, the peptide text is derived from it. [ ]: non-standard residue; d: D form. NMeY = CN[C@@H](Cc1ccc(O)cc1)C(=O)O; dNMeL = CN[C@H](CC(C)C)C(=O)O; NMeS = CN[C@@H](CO)C(=O)O
QUANTITY_MEASURED: Cmax

compound="CC(C)C[C@@H]1NC(=O)[C@H](Cc2ccc(O)cc2)N(C)C(=O)[C@H]2CCCN2C(=O)[C@H](CC(C)C)NC(=O)[C@H](CO)N(C)C(=O)[C@@H](CC(C)C)N(C)C1=O (cyclo(L[dNMeL][NMeS]L[dP][NMeY]))" assay_result="9.86 ng/mL"

====

Let's look at some molecules and their measured CLint scaled.
experiment: Intrinsic clearance in human liver microsomes by LC-MS/MS analysis; assay type: ADME; settings: read-out: CLH
*1 amine or outer side, *2 acyl side, *3 side chain or, on linkers, in order; H or OH if unused. Where a SMILES comes first, the peptide text is derived from it. [ ]: non-standard residue; d: D form. X1 = CN([C@@H](CCN1CCCCC1)C(=O)[*:2])[*:1]; NMeY = CN[C@@H](Cc1ccc(O)cc1)C(=O)O; dNMeL = CN[C@H](CC(C)C)C(=O)O
QUANTITY_MEASURED: CLint scaled

molecule="CC(C)C[C@@H]1NC(=O)[C@H](Cc2ccc(O)cc2)N(C)C(=O)[C@H]2CCCN2C(=O)[C@H](CC(C)C)NC(=O)[C@H](Cc2ccc(O)cc2)N(C)C(=O)[C@@H](CC(C)C)N(C)C1=O (cyclo(L[dNMeL][NMeY]L[dP][NMeY]))" assay_result="29 mL/min/kg"
molecule="CC(C)C[C@@H]1NC(=O)[C@H](Cc2ccc(O)cc2)N(C)C(=O)[C@H]2CCCN2C(=O)[C@H](CC(C)C)NC(=O)[C@H](CCN2CCCCC2)N(C)C(=O)[C@@H](CC(C)C)N(C)C1=O (cyclo(L[dNMeL][X1]L[dP][NMeY]))" assay_result="< 8 mL/min/kg"

====

assay: Intrinsic clearance in rat liver microsomes by LC-MS/MS analysis; assay type: ADME; settings: read-out: CLH
Where a SMILES comes first, the peptide text is derived from it. [ ]: non-standard residue; d: D form. NMeY = CN[C@@H](Cc1ccc(O)cc1)C(=O)O; NMeT = CN[C@H](C(=O)O)[C@@H](C)O; NMeD = CN[C@@H](CC(=O)O)C(=O)O; dNMeL = CN[C@H](CC(C)C)C(=O)O; NMeK = CN[C@@H](CCCCN)C(=O)O; NMeS = CN[C@@H](CO)C(=O)O
QUANTITY_MEASURED: CLint scaled (mL/min/kg)

compound="CC(C)C[C@@H]1NC(=O)[C@H](Cc2ccc(O)cc2)N(C)C(=O)[C@H]2CCCN2C(=O)[C@H](CC(C)C)NC(=O)[C@H](CO)N(C)C(=O)[C@@H](CC(C)C)N(C)C1=O (cyclo(L[dNMeL][NMeS]L[dP][NMeY]))" quantity_measured="CLint scaled" reported_relation== assay_result=96
compound="CC(C)C[C@@H]1NC(=O)[C@H](Cc2ccc(O)cc2)N(C)C(=O)[C@H]2CCCN2C(=O)[C@H](CC(C)C)NC(=O)[C@H]([C@@H](C)O)N(C)C(=O)[C@@H](CC(C)C)N(C)C1=O (cyclo(L[dNMeL][NMeT]L[dP][NMeY]))" quantity_measured="CLint scaled" reported_relation== assay_result=44
compound="CC(C)C[C@@H]1NC(=O)[C@H](Cc2ccc(O)cc2)N(C)C(=O)[C@H]2CCCN2C(=O)[C@H](CC(C)C)NC(=O)[C@H](CC(=O)O)N(C)C(=O)[C@@H](CC(C)C)N(C)C1=O (cyclo(L[dNMeL][NMeD]L[dP][NMeY]))" quantity_measured="CLint scaled" reported_relation=< assay_result=9
compound="CC(C)C[C@@H]1NC(=O)[C@H](Cc2ccc(O)cc2)N(C)C(=O)[C@H]2CCCN2C(=O)[C@H](CC(C)C)NC(=O)[C@H](CCCCN)N(C)C(=O)[C@@H](CC(C)C)N(C)C1=O (cyclo(L[dNMeL][NMeK]L[dP][NMeY]))" quantity_measured="CLint scaled" reported_relation=< assay_result=9

====

test: Terminal elimination half life in Wistar-Han rat at 5 mg/kg, po; assay type: ADME, organism-based; parameters: dose 5 mg/kg, route oral; conditions: in vivo, read-out: beta t1/2 (converted)
Where a SMILES comes first, the peptide text is derived from it. [ ]: non-standard residue; d: D form. NMeY = CN[C@@H](Cc1ccc(O)cc1)C(=O)O; dNMeL = CN[C@H](CC(C)C)C(=O)O; NMeS = CN[C@@H](CO)C(=O)O
QUANTITY_MEASURED: half-life

compound="CC(C)C[C@@H]1NC(=O)[C@H](Cc2ccc(O)cc2)N(C)C(=O)[C@H]2CCCN2C(=O)[C@H](CC(C)C)NC(=O)[C@H](CO)N(C)C(=O)[C@@H](CC(C)C)N(C)C1=O (cyclo(L[dNMeL][NMeS]L[dP][NMeY]))" assay_result="2.82 h"

====

experiment: Lipophilicity, log D of the compound at pH 7.4 by shake-flask method; assay type: physicochemical; conditions: buffer
*1 amine or outer side, *2 acyl side, *3 side chain or, on linkers, in order; H or OH if unused. Where a SMILES comes first, the peptide text is derived from it. [ ]: non-standard residue; d: D form. The star is where a group is joined. X1 = CN([C@@H](CCN1CCCCC1)C(=O)[*:2])[*:1]; NMeY = CN[C@@H](Cc1ccc(O)cc1)C(=O)O; NMeD = CN[C@@H](CC(=O)O)C(=O)O; dNMeL = CN[C@H](CC(C)C)C(=O)O; NMeS = CN[C@@H](CO)C(=O)O; Morpholide = C1CN(*)CCO1; Piperidide = C1CCN(*)CC1
Let's look at some compounds and their measured logD.
QUANTITY_MEASURED: logD

compound="CC(C)C[C@@H]1NC(=O)[C@H](Cc2ccc(O)cc2)N(C)C(=O)[C@H]2CCCN2C(=O)[C@H](CC(C)C)NC(=O)[C@H](CC(=O)N2CCOCC2)N(C)C(=O)[C@@H](CC(C)C)N(C)C1=O (cyclo(L[dNMeL][NMeD](Morpholide)L[dP][NMeY]))" quantity_measured=logD assay_result=2.78
compound="CC(C)C[C@@H]1NC(=O)[C@H](Cc2ccc(O)cc2)N(C)C(=O)[C@H]2CCCN2C(=O)[C@H](CC(C)C)NC(=O)[C@H](CCN2CCCCC2)N(C)C(=O)[C@@H](CC(C)C)N(C)C1=O (cyclo(L[dNMeL][X1]L[dP][NMeY]))" quantity_measured=logD assay_result=2.2
compound="CC(C)C[C@@H]1NC(=O)[C@H](Cc2ccc(O)cc2)N(C)C(=O)[C@H]2CCCN2C(=O)[C@H](CC(C)C)NC(=O)[C@H](CC(=O)N2CCCCC2)N(C)C(=O)[C@@H](CC(C)C)N(C)C1=O (cyclo(L[dNMeL][NMeD](Piperidide)L[dP][NMeY]))" quantity_measured=logD assay_result=3.77
compound="CC(C)C[C@@H]1NC(=O)[C@H](Cc2ccc(O)cc2)N(C)C(=O)[C@H]2CCCN2C(=O)[C@H](CC(C)C)NC(=O)[C@H](CO)N(C)C(=O)[C@@H](CC(C)C)N(C)C1=O (cyclo(L[dNMeL][NMeS]L[dP][NMeY]))" quantity_measured=logD assay_result=2.61

The reported numbers originate from ChEMBL document CHEMBL3217723.
